TARGET OR SYSTEM: HIV-1 protease (Human immunodeficiency virus type 1 group M subtype B)
PARAMETER: IC50

Prompt line: Fill in: IC50 on HIV-1 protease (Human immunodeficiency virus type 1 group M subtype B), entry Cc1ccc(C)c(OCC(=O)N[C@@H](Cc2ccccc2)[C@H](O)CCc2ccccc2C(=O)NC(C)(C)C)c1C [Example 001201]
Response line: < 100 nM

Prompt line: Fill in: IC50 on HIV-1 protease (Human immunodeficiency virus type 1 group M subtype B), entry CC(C)(C)NC(=O)c1ccccc1CC[C@@H](O)[C@H](Cc1ccccc1)NC(=O)COc1ccccc1C(F)(F)F [Example 001204]
Response line: 100 to 10000 nM

Prompt line: Fill in: IC50 on HIV-1 protease (Human immunodeficiency virus type 1 group M subtype B), entry CCCCNC(=O)c1ccccc1CC[C@@H](O)[C@H](Cc1ccccc1)NC(=O)OC(C)(C)C [Example 000344]
Response line: 100 to 10000 nM

Prompt line: Fill in: IC50 on HIV-1 protease (Human immunodeficiency virus type 1 group M subtype B), entry Cc1c(O)cccc1C(=O)N[C@@H](Cc1ccccc1)[C@H](O)CCc1ccccc1C(=O)NC(C)(C)C [Example 000972]
Response line: < 100 nM

Prompt line: Fill in: IC50 on HIV-1 protease (Human immunodeficiency virus type 1 group M subtype B), entry CCCCNC(=O)N[C@@H](Cc1ccccc1)[C@H](O)CCc1ccccc1C(=O)NC(C)(C)C [Example 000891]
Response line: 100 to 10000 nM

Prompt line: Fill in: IC50 on HIV-1 protease (Human immunodeficiency virus type 1 group M subtype B), entry CC(C)(C)NC(=O)c1ccccc1CC[C@@H](O)[C@H](Cc1ccccc1)NC(=O)c1cccc([N+](=O)[O-])c1Br [Example 000946]
Response line: > 10000 nM

Prompt line: Fill in: IC50 on HIV-1 protease (Human immunodeficiency virus type 1 group M subtype B), entry CC(C)(C)NC(=O)c1ccccc1CC[C@@H](O)[C@H](Cc1ccccc1)NC(=O)Nc1ccc([N+](=O)[O-])cc1 [Example 000889]
Response line: 100 to 10000 nM

Prompt line: Fill in: IC50 on HIV-1 protease (Human immunodeficiency virus type 1 group M subtype B), entry CCCCCNC(=O)N[C@@H](Cc1ccccc1)[C@H](O)CCc1ccccc1C(=O)NC(C)(C)C [Example 000890]
Response line: 100 to 10000 nM

Prompt line: Fill in: IC50 on HIV-1 protease (Human immunodeficiency virus type 1 group M subtype B), entry Cc1ccc(CO)cc1C(=O)N[C@@H](Cc1ccccc1)[C@H](O)CCc1ccccc1C(=O)NC(C)(C)C [Example 000895]
Response line: < 100 nM

Prompt line: Fill in: IC50 on HIV-1 protease (Human immunodeficiency virus type 1 group M subtype B), entry Cc1cc(CO)cc(C)c1OCC(=O)N[C@@H](Cc1ccccc1)[C@H](O)CCc1ccccc1C(=O)NC(C)(C)C [Example 001267]
Response line: < 100 nM

Prompt line: Fill in: IC50 on HIV-1 protease (Human immunodeficiency virus type 1 group M subtype B), entry Cc1ccc(C(=O)C=CC(=O)NC(Cc2ccccc2)C(O)CCc2ccccc2C(=O)NC(C)(C)C)cc1 (stereo not shown) [Example 000950]
Response line: > 10000 nM

Prompt line: Fill in: IC50 on HIV-1 protease (Human immunodeficiency virus type 1 group M subtype B), entry CC(C)(C)NC(=O)c1ccccc1CC[C@@H](O)[C@H](Cc1ccccc1)NC(=O)CCC(=O)c1ccc(F)cc1 [Example 000973]
Response line: < 100 nM

Prompt line: Fill in: IC50 on HIV-1 protease (Human immunodeficiency virus type 1 group M subtype B), entry CC(C)(C)NC(=O)c1ccccc1CC[C@@H](O)[C@H](Cc1ccccc1)NS(=O)(=O)c1cccs1 [Example 000880]
Response line: 100 to 10000 nM

Prompt line: Fill in: IC50 on HIV-1 protease (Human immunodeficiency virus type 1 group M subtype B), entry COc1ccc(C(=O)c2ccccc2C(=O)N[C@@H](Cc2ccccc2)[C@H](O)CCc2ccccc2C(=O)NC(C)(C)C)c(O)c1 [Example 001034]
Response line: 100 to 10000 nM

Prompt line: Fill in: IC50 on HIV-1 protease (Human immunodeficiency virus type 1 group M subtype B), entry COc1cccc(OC)c1C(=O)N[C@@H](Cc1ccccc1)[C@H](O)CCc1ccccc1C(=O)NC(C)(C)C [Example 000966]
Response line: 100 to 10000 nM

Prompt line: Fill in: IC50 on HIV-1 protease (Human immunodeficiency virus type 1 group M subtype B), entry CC(C)(C)NC(=O)c1ccccc1CC[C@@H](O)[C@H](Cc1ccccc1)NC(=O)CCc1ccccc1 [Example 000763]
Response line: 100 to 10000 nM

Prompt line: Fill in: IC50 on HIV-1 protease (Human immunodeficiency virus type 1 group M subtype B), entry CC(C)(C)NC(=O)c1ccccc1CC[C@@H](O)[C@H](Cc1ccccc1)NC(=O)c1ccccc1C(F)(F)F [Example 001042]
Response line: 100 to 10000 nM

Prompt line: Fill in: IC50 on HIV-1 protease (Human immunodeficiency virus type 1 group M subtype B), entry CC(C)(C)NC(=O)c1ccccc1CC[C@@H](O)[C@H](Cc1ccccc1)NC(=O)O[C@H]1CCOC1 [Example 000180]
Response line: < 100 nM

Prompt line: Fill in: IC50 on HIV-1 protease (Human immunodeficiency virus type 1 group M subtype B), entry CC(C)(C)NC(=O)c1ccccc1CC[C@@H](O)[C@H](Cc1ccccc1)NC(=O)c1ccccc1C(=O)c1ccccc1 [Example 00968]
Response line: 100 to 10000 nM

Prompt line: Fill in: IC50 on HIV-1 protease (Human immunodeficiency virus type 1 group M subtype B), entry CC1CCCCC1OCC(=O)NC(Cc1ccccc1)C(O)CCc1ccccc1C(=O)NC(C)(C)C (stereo not shown) [Example 001229]
Response line: 100 to 10000 nM

Prompt line: Fill in: IC50 on HIV-1 protease (Human immunodeficiency virus type 1 group M subtype B), entry CC(C)(C)NC(=O)c1ccccc1CC[C@@H](O)[C@H](Cc1ccccc1)NC(=O)N1CCOCC1 [Example 001008]
Response line: 100 to 10000 nM

Prompt line: Fill in: IC50 on HIV-1 protease (Human immunodeficiency virus type 1 group M subtype B), entry CC(C)(C)NC(=O)c1ccccc1CC[C@@H](O)[C@H](Cc1ccccc1)NC(=O)c1ccc(F)cc1F [Example 000901]
Response line: 100 to 10000 nM

Prompt line: Fill in: IC50 on HIV-1 protease (Human immunodeficiency virus type 1 group M subtype B), entry CC(C)CCNC(=O)c1ccccc1CC[C@@H](O)[C@H](Cc1ccccc1)NC(=O)OC(C)(C)C [Example 000766]
Response line: 100 to 10000 nM

Prompt line: Fill in: IC50 on HIV-1 protease (Human immunodeficiency virus type 1 group M subtype B), entry CC(C)(C)NC(=O)c1ccccc1CC[C@@H](O)[C@H](Cc1ccccc1)NC(=O)CNc1ccccc1 [Example 001192]
Response line: 100 to 10000 nM

Prompt line: Fill in: IC50 on HIV-1 protease (Human immunodeficiency virus type 1 group M subtype B), entry CC(C)(C)NC(=O)c1ccccc1CC[C@@H](O)[C@H](Cc1ccccc1)NS(=O)(=O)c1ccc(C#N)cc1 [Example 000876]
Response line: 100 to 10000 nM

Prompt line: Fill in: IC50 on HIV-1 protease (Human immunodeficiency virus type 1 group M subtype B), entry CCNC(=O)N[C@@H](Cc1ccccc1)[C@H](O)CCc1ccccc1C(=O)NC(C)(C)C [Example 000771]
Response line: 100 to 10000 nM

Prompt line: Fill in: IC50 on HIV-1 protease (Human immunodeficiency virus type 1 group M subtype B), entry COc1cccc(C)c1OCC(=O)N[C@@H](Cc1ccccc1)[C@H](O)CCc1ccccc1C(=O)NC(C)(C)C [Example 001213]
Response line: < 100 nM

Prompt line: Fill in: IC50 on HIV-1 protease (Human immunodeficiency virus type 1 group M subtype B), entry CCc1ccc(NC(=O)N[C@@H](Cc2ccccc2)[C@H](O)CCc2ccccc2C(=O)NC(C)(C)C)cc1 [Example 000893]
Response line: 100 to 10000 nM
